# assay_explanation: Quorum luxo inducers, light production, v cholerae bh1651 luxod47e, confirmatory dose response (AID 624254)
# measurement_parameters: V. cholerae BH1651 luxOD47E, luciferase light induction, 6 h; at 50 µM (top of the series)
Activity calls are given as the source filed them. How the calls were made is not given here.
observable: activation (light increase)

Some compounds with recorded activation (light increase):
Any idea what its activation (light increase) is? The compound is "C[C@H](CO)N1C[C@H](C)[C@H](CN(C)S(=O)(=O)c2cccs2)Oc2c(NC(=O)C3CC3)cccc2C1=O" inactive

Queued: CCOCCCNC(=O)C(NC(=O)CNC(=O)c1ccccc1)c1ccccc1 (stereo not drawn) inactive

Queued: "CC(C)Oc1ccc(C(=O)Nc2cc(S(=O)(=O)N3CCOCC3)ccc2N2CCOCC2)cc1" inactive

Queued: "COC(=O)Cc1c(C)c2ccc(OC(=O)c3ccccc3)cc2oc1=O" inactive

Queued: "COc1cc(NC(=O)CN2C(=O)NC(c3ccccc3)(c3ccccc3)C2=O)cc(OC)c1" inactive

***
Any idea what its activation (light increase) is? The compound is "C[C@@H]1CN([C@@H](C)CO)C(=O)c2cccc(NC(=O)Nc3ccc4c(c3)OCO4)c2O[C@@H]1CN(C)S(=O)(=O)c1ccccc1" inactive

Queued: "COc1ccc(NC(=O)CSc2ccc3c(c2)OCCO3)cc1OC" inactive

Queued: "COc1ccc(/C(N)=N/OC(=O)Cc2ccccc2OC)cc1" inactive

Queued: "Cc1cccc(N2CCN(C(=O)C34CC5CC(CC(C5)C3)C4)CC2)c1C" inactive

Queued: "Cc1cccc(C(=O)OCC(=O)NCC(C)C)c1O" inactive

Queued: "COCCNC(=S)N(CCCO)Cc1cc2cc3c(cc2[nH]c1=O)OCCO3" inactive

Queued: "COc1ccc(OCc2cn3c(C)cc(C)nc3n2)cc1" inactive

Queued: "Cc1ccc(C(=O)OCC(=O)Nc2ccccc2)cc1NC(=O)c1ccco1" inactive

Queued: "Cc1ccccc1-n1nnnc1-c1ccccc1" inactive

Queued: "CCCCOC(=O)n1c(=O)oc2ccccc21" inactive

Queued: "CCN(CC)C(=O)c1sc(NC(=O)Cc2ccc(OC)cc2)c(C#N)c1C" inactive

Queued: COC(C(=O)Nc1ccccc1C(=O)N1CCOCC1)c1ccccc1 (stereo not drawn) inactive

Queued: "O=C(NCc1nc(-c2ccccc2)no1)c1cccs1" inactive

Queued: "CCC(=O)c1ccc(N2CCCCCC2)c(F)c1" inactive

Queued: CCc1cccc(C)c1N(C(=O)Cn1c(CO)nc2ccccc21)C(C)COC (stereo not drawn) inactive

Queued: "Cn1cnc(S(=O)(=O)Nc2ccccc2)c1" inactive

Queued: "Cn1cnc(S(=O)(=O)Nc2ccccc2F)c1" inactive

Queued: "Nc1nc(SCc2nc3sc4c(c3c(=O)[nH]2)CCCC4)n[nH]1" inactive

---

# assay_explanation: Quorum luxo inducers, light production, v cholerae bh1651 luxod47e, confirmatory dose response (AID 624254)
# measurement_parameters: V. cholerae BH1651 luxOD47E, luciferase light induction, 6 h; at 50 µM (top of the series)
The source made the active and inactive calls. The rule behind the calls is not given here.
observable: activation (light increase)

Any idea what its activation (light increase) is? The molecule is "Cc1noc(C)c1NC(=O)Nc1cccc2c1O[C@H](CN(C)S(=O)(=O)c1ccccc1)[C@@H](C)CN([C@H](C)CO)C2=O" inactive

Queued: "Cn1cnc(S(=O)(=O)Nc2ccc(OC(F)(F)F)cc2)c1" inactive

Queued: CCCOC(=O)c1ccc(NC(=O)C2CCCO2)cc1 (stereo unspecified) inactive

Queued: "Cc1cc2oc(=O)cc(CN3CCC(C)CC3)c2cc1Cl" inactive

***
Any idea what its activation (light increase) is? The molecule is "CCCn1nnnc1NCc1ccc(N(CC)CC)cc1" inactive

Queued: "CCOc1ccc(CNc2nnnn2C)cc1" inactive

Queued: "COc1ccccc1NC(=O)COC(=O)c1cc(C)oc1C" inactive

Queued: "CCc1sc(N(C(=O)Cc2ccccc2)c2ccc(F)cc2)nc1-c1ccccc1" inactive

Queued: "COC(=O)C1CCN(C(=O)CN(C)Cc2ccc(C(C)(C)C)cc2)CC1" inactive

Queued: "C[C@@H]1CN([C@H](C)CO)C(=O)c2cccc(NC(=O)C3CC3)c2O[C@H]1CN(C)S(=O)(=O)c1cccs1" inactive

Queued: CC1(C(=O)N2CCN(c3ccc([N+](=O)[O-])cc3)CC2)CC1(Cl)Cl (stereo unspecified) inactive

---

# assay_explanation: Quorum luxo inducers, light production, v cholerae bh1651 luxod47e, confirmatory dose response (AID 624254)
# measurement_parameters: V. cholerae BH1651 luxOD47E, luciferase light induction, 6 h; at 50 µM (top of the series)
The source made the active and inactive calls. No rule for the calls is given here.
observable: activation (light increase)

Some compounds with recorded activation (light increase):
Any idea what its activation (light increase) is? The compound is "O=C(NCC(F)(F)F)Nc1ncccn1" inactive

Queued: "COc1ccc(CC(=O)N2CCC(Nc3nc4ccccc4n3Cc3ccc(F)cc3)CC2)cc1" inactive

Queued: "O=c1c2ccccc2nnn1CSc1nnc2ccccn12" inactive

Queued: "CCN(CC)S(=O)(=O)c1cccc(C(=O)OCC(=O)C23CC4CC(CC(C4)C2)C3)c1" inactive

Queued: "COc1ccc2[nH]c(=O)c(CNc3ccc(C)c(C)c3)cc2c1" inactive

Queued: CCC(O)(CCN1CCCCC1)c1ccccc1 (stereo unspecified) inactive

***
Any idea what its activation (light increase) is? The compound is "O=S(=O)(Nc1ccc(-c2ccc3nncn3n2)cc1)c1ccc(Cl)s1" inactive

Queued: "Cn1c(=O)oc2cc(S(=O)(=O)N3CCN(c4ccc(F)cc4)CC3)ccc21" inactive

Queued: "O=C(c1cc(-c2ccc3c(c2)OCO3)on1)N1CCN(c2ccc(F)cc2)CC1" inactive

Queued: "COc1ccccc1CNC(=O)c1ccc(S(=O)(=O)N(C)c2ccccc2)cc1" inactive

Queued: "Cc1csc(NC(=O)Cc2nn(C)c(=O)c3ccccc23)n1" inactive

---

# assay_explanation: Quorum luxo inducers, light production, v cholerae bh1651 luxod47e, confirmatory dose response (AID 624254)
# measurement_parameters: V. cholerae BH1651 luxOD47E, luciferase light induction, 6 h; at 50 µM (top of the series)
Activity calls are given as the source filed them. How the calls were made is not given here.
observable: activation (light increase)

Some molecules with recorded activation (light increase):
Any idea what its activation (light increase) is? The molecule is "O=S(=O)(Nc1ccc(-c2csc(-c3ccccc3)n2)cc1)c1ccc(F)cc1" inactive

Queued: "CC(=O)c1ccc(NC(=O)COc2ccccc2C(=O)Nc2ccccc2)cc1" inactive

Queued: "O=C(CN1C(=O)CSC1=O)NC1CCCCC1" inactive

Queued: "Cc1cc(C(=O)OCC(=O)NC2CCCCC2)c(C)o1" inactive

Queued: "S=C(c1ccc(N2CCOCC2)cc1)N1CCCCC1" inactive

Queued: "Oc1ccc(-c2cn3c(n2)SCC3)cc1" inactive

Queued: CCN(C(=O)COc1ncnc2ccc(Br)cc12)C1CCS(=O)(=O)C1 (configuration not stated) inactive

Queued: "O=Cc1cc(OCc2ccccc2)ccc1B(O)O" inactive

***
Any idea what its activation (light increase) is? The molecule is "CCc1cc(C(=O)N2CCN(C(=O)c3ccccc3)CC2)sc1C" inactive

Queued: "N#Cc1ccccc1NC(=O)CNc1ccccc1N1CCCCC1" inactive

Queued: "CC(C)NC(=O)c1cnc(Sc2ncc(C(F)(F)F)cc2Cl)n1C" inactive
